# ASSAYED_TARGET: human CD33 G114A (human, UniProt P20138 18-364)
# Sequence (P20138 18-364 G114A limits assumed): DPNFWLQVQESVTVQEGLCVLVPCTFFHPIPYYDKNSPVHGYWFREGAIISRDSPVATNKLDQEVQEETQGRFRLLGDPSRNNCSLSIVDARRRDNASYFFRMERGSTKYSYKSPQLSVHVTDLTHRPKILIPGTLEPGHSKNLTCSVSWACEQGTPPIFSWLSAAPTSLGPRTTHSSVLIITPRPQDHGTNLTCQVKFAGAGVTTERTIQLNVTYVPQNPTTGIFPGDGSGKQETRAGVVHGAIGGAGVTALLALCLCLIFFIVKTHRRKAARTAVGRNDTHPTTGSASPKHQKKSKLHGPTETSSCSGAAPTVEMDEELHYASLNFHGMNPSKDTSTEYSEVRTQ
# PROTOCOL_DESCRIPTION: flow cytometry on HEK293-T, alanine scan
MEASURED_ENDPOINT: Mean % WT Binding (% WT binding)
Provide only the numeric value, understood in % WT binding.

Refmab #1 (antibody, V domains shown, The alanine scan used IgG or Fab; also called hP67.6) VH: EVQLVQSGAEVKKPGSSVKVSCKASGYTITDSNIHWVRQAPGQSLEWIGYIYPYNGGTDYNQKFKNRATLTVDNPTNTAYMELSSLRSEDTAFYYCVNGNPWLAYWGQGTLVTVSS VL: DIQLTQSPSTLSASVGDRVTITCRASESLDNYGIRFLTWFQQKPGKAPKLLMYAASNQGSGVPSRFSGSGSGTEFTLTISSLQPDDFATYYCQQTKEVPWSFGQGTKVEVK yielded Mean % WT Binding of 96.9

Reported Mean % WT Binding ( Refmab #4 (antibody, V domains shown, The alanine scan used IgG or Fab) VH: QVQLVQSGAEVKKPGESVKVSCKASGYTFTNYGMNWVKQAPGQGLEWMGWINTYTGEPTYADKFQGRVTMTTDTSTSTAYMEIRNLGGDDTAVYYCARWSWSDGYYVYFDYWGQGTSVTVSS VL: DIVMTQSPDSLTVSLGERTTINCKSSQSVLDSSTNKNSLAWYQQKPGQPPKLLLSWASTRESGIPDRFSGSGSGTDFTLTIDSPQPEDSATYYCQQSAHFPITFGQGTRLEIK ) = 110

For this binder ( Refmab #3 (antibody, V domains shown, The alanine scan used IgG or Fab) VH: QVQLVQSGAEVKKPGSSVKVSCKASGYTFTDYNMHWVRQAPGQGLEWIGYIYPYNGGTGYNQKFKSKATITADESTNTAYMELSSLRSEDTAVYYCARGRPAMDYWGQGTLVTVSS VL: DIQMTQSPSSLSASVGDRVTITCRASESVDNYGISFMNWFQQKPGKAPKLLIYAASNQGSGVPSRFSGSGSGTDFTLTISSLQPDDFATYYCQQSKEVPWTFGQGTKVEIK ), measured Mean % WT Binding is 92.6
